Attribution: the supplement of paper PMC5998384

System: HeLa Kyoto;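 note: synchronized HeLa Kyoto cells, proteins quantified by TMT10plex mass spectrometry, three biological replicates, mitosis taken 0.5 h after nocodazole release, G1/S directly after double thymidine block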
run description: thermal stability score vs G1/S (z-score of summed log2 fold changes over temperatures); higher = more thermally stable than in G1/S
condition details: cell cycle stage: early G1 (4.5 h after nocodazole release)
Rule: 1 (yes) for thermal stability score not less than 0.2, 0 (no) for anything less.

Examples from the recorded data:
{"substance": "ARHGAP4", "group label": "1 (yes)"}
{"substance": "MEIPPTNYPASRAALVAQNYINYQQGTPHRVFEVQKVKQASMEDIPGRGHKYHLKFAVEEIIQKQVKVNCTAEVLYPSTGQETAPEVNFTFEGETGKNPDEEDNTFYQRLKSMKEPLEAQNIPDNFGNVSPEMTLVLHLAWVACGYIIWQNSTEDTWYKMVKIQTVKQVQRNDDFIELDYTILLHNIASQEIIPWQMQVLWHPQYGTKVKHNSRLPKEVQLE [LXN]", "group label": "1 (yes)"}

## Task Is thermal stability score for MAGRGGAARPNGPAAGNKICQFKLVLLGESAVGKSSLVLRFVKGQFHEYQESTIGAAFLTQTVCLDDTTVKFEIWDTAGQERYHSLAPMYYRGAQAAIVVYDITNTDTFARAKNWVKELQRQASPNIVIALAGNKADLASKRAVEFQEAQAYADDNSLLFMETSAKTAMNVNEIFMAIAKKLPKNEPQNATGAPGRNRGVDLQENNPASRSQCCSN [RAB5C] at or above 0.2?
## Result 0 (no)

## Task Is thermal stability score for MPKKFQGENTKSAAARARRAEAKAAADAKKQKELEDAYWKDDDKHVMRKEQRKEEKEKRRLDQLERKKETQRLLEEEDSKLKGGKAPRVATSSKVTRAQIEDTLRRDHQLREAPDTAEKAKSHLEVPLEENVNRRVLEEGSVEARTIEDAIAVLSVAEEAADRHPERRMRAAFTAFEEAQLPRLKQENPNMRLSQLKQLLKKEWLRSPDNPMNQRAVPFNAPK [CCDC124] at or above 0.2?
## Result 1 (yes)

## Task Is thermal stability score for MLSALARPASAALRRSFSTSAQNNAKVAVLGASGGIGQPLSLLLKNSPLVSRLTLYDIAHTPGVAADLSHIETKAAVKGYLGPEQLPDCLKGCDVVVIPAGVPRKPGMTRDDLFNTNATIVATLTAACAQHCPEAMICVIANPVNSTIPITAEVFKKHGVYNPNKIFGVTTLDIVRANTFVAELKGLDPARVNVPVIGGHAGKTIIPLISQCTPKVDFPQDQLTALTGRIQEAGTEVVKAKAGAGSATLSMAYAGARFVFSLVDAMNGKEGVVECSFVKSQETECTYFSTPLLLGKKGIEKNLGIGKVSSFEEKMISDAIPELKASIKKGEDFVKTLK [MDH2] at or above 0.2?
## Result 0 (no)

## Task Is thermal stability score for MSVRVARVAWVRGLGASYRRGASSFPVPPPGAQGVAELLRDATGAEEEAPWAATERRMPGQCSVLLFPGQGSQVVGMGRGLLNYPRVRELYAAARRVLGYDLLELSLHGPQETLDRTVHCQPAIFVASLAAVEKLHHLQPSVIENCVAAAGFSVGEFAALVFAGAMEFAEGLYAVKIRAEAMQEASEAVPSGMLSVLGQPQSKFNFACLEAREHCKSLGIENPVCEVSNYLFPDCRVISGHQEALRFLQKNSSKFHFRRTRMLPVSGAFHTRLMEPAVEPLTQALKAVDIKKPLVSVYSNVHAHRYRHPGHIHKLLAQQLVSPVKWEQTMHAIYERKKGRGFPQTFEVGPGRQLGAILKSCNMQAWKSYSAVDVLQTLEHVDLDPQEPPR [MT] at or above 0.2?
## Result 0 (no)

## Task Is thermal stability score for MGELPLDINIQEPRWDQSTFLGRARHFFTVTDPRNLLLSGAQLEASRNIVQNYRAGVVTPGITEDQLWRAKYVYDSAFHPDTGEKVVLIGRMSAQVPMNMTITGCMLTFYRKTPTVVFWQWVNQSFNAIVNYSNRSGDTPITVRQLGTAYVSATTGAVATALGLKSLTKHLPPLVGRFVPFAAVAAANCINIPLMRQRELQVGIPVADEAGQRLGYSVTAAKQGIFQVVISRICMAIPAMAIPPLIMDTLEKKDFLKRRPWLGAPLQVGLVGFCLVFATPLCCALFPQKSSIHISNLEPELRAQIHEQNPSVEVVYYNKGL [SFXN3] at or above 0.2?
## Result 0 (no)

## Task Is thermal stability score for MDAWVRFSAQSQARERLCRAAQYACSLLGHALQRHGASPELQKQIRQLESHLSLGRKLLRLGNSADALESAKRAVHLSDVVLRFCITVSHLNRALYFACDNVLWAGKSGLAPRVDQEKWAQRSFRYYLFSLIMNLSRDAYEIRLLMEQESSACSRRLKGSGGGVPGGSETGGLGGPGTPGGGLPQLALKLRLQVLLLARVLRGHPPLLLDVVRNACDLFIPLDKLGLWRCGPGIVGLCGLVSSILSILTLIYPWLRLKP [PEX11B] at or above 0.2?
## Result 0 (no)

## Task Is thermal stability score for MAKAYDHLFKLLLIGDSGVGKTCLIIRFAEDNFNNTYISTIGIDFKIRTVDIEGKKIKLQVWDTAGQERFKTITTAYYRGAMGIILVYDITDEKSFENIQNWMKSIKENASAGVERLLLGNKCDMEAKRKVQKEQADKLAREHGIRFFETSAKSSMNVDEAFSSLARDILLKSGGRRSGNGNKPPSTDLKTCDKKNTNKCSLG [RAB13] at or above 0.2?
## Result 0 (no)

## Task Is thermal stability score for MAFRQALQLAACGLAGGSAAVLFSAVAVGKPRAGGDAEPRPAEPPAWAGGARPGPGVWDPNWDRREPLSLINVRKRNVESGEEELASKLDHYKAKATRHIFLIRHSQYHVDGSLEKDRTLTPLGREQAELTGLRLASLGLKFNKIVHSSMTRAIETTDIISRHLPGVCKVSTDLLREGAPIEPDPPVSHWKPEAVQYYEDGARIEAAFRNYIHRADARQEEDSYEIFICHANVIRYIVCRALQFPPEGWLRLSLNNGSITHLVIRPNGRVALRTLGDTGFMPPDKITRS [PGAM5] at or above 0.2?
## Result 1 (yes)

## Task Is thermal stability score for MAGPRVEVDGSIMEGGGQILRVSTALSCLLGLPLRVQKIRAGRSTPGLRPQHLSGLEMIRDLCDGQLEGAEIGSTEITFTPEKIKGGIHTADTKTAGSVCLLMQVSMPCVLFAASPSELHLKGGTNAEMAPQIDYTVMVFKPIVEKFGFIFNCDIKTRGYYPKGGGEVIVRMSPVKQLNPINLTERGCVTKIYGRAFVAGVLPFKVAKDMAAAAVRCIRKEIRDLYVNIQPVQEPKDQAFGNGNGIIIIAETSTGCLFAGSSLGKRGVNADKVGIEAAEMLLANLRHGGTVDEYLQDQLIVFMALANGVSRIKTGPVTLHTQTAIHFAEQIAKAKFIVKKSEDEEDAAKDTYIIECQGIGMTNPNL [RTCA] at or above 0.2?
## Result 0 (no)
